CL/F values, listed per item
experiment: Apparent total plasma clearance in rat at 5 mg/kg, po; format: ADME, organism-based; parameters: dose 5 mg/kg, route oral; details: read-out: CLt/F (converted)
METRIC: CL/F (mL/min/kg)

INSERT INTO results (molecular_string, value_observed) VALUES
  ('CC1=NN(c2ccc(C)c(C)c2)C(=O)/C1=C(/C)NNC(=O)N1CCc2cc(C(=O)O)ccc21', 113),
  ('CC1=NN(c2ccc3c(c2)CCC3)C(=O)/C1=C(/C)NNC(=O)N1CCc2cc(C(=O)O)ccc21', 20.5);
